Target: Mouse 11β-HSD 1 (Mus musculus)
Sequence (P50172 whole entry): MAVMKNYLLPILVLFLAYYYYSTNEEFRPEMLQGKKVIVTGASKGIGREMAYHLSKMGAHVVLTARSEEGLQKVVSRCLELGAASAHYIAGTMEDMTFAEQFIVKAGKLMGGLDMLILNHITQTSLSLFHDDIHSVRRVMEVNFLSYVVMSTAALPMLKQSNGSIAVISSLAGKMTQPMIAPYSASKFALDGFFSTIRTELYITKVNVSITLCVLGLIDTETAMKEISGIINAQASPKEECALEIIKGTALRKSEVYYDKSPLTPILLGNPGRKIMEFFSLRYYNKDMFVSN
Assay: Evaluation of compound against mouse 11β-HSD1 (HTRF corticosterone assay)
Format: biochemical
Details: mouse 11β-HSD1, 11-dehydrocorticosterone 2 μM substrate, 37° C. 2 hours
Each entry below carries its recorded IC50.
Record the value in nM, omitting the unit from your answer.

>  <MOLECULE>
CCN(C1=NC(=O)C2CC(C)(C)CCC2S1)N1CCCCCC1 (centres unmarked) [Compound I-195]

>  <RESULT VALUE>
1640

$$$$

Lookup: Using the record for CN(C1=NC(=O)C2CCCCCC2S1)C(C)(C)C (centres unmarked) [Compound I-158] , report its IC50.
Found: 1490

// provenance: patent US20100234363A1
